// values below are reported IC50
Molecular target: T1, hCD47-ECD/Fc protein (Sinobiological) (human, UniProt Q08722 19-139, biotinylated in the Octet assay, sites not stated)
T1 construct: extracellular domain; Bought protein; also called human CD47-Fc antigen; recombinant hCD47-ECD/Fc; not shown: Fc part of the bought fusion protein
T1 sequence (Q08722 19-139 limits assumed): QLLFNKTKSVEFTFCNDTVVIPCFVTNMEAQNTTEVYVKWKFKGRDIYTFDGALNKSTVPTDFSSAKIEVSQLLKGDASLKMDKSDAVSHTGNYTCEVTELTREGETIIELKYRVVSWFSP
Test: competition ELISA vs biotin-hSIRPα-ECD/His on coated hCD47-ECD/Fc, experiment 1
Numeric answer only, unit nM assumed.

{"binder": "TY25031 (antibody, V domains shown) VH: EVQLVESGGGLVQPGGSLRLSCAASGYSITSGYHWGWIRQAPGKGLEWIGRIYPSSGSTKYAQKFQGRVTISRDNSKNTLYLQLNSLRAEDTAVYYCARGVRGSYGWFDVWGQGTLVTVSS VL: DIQLTQSPSSLSASVGDRVTITCSASSRVSYVYWYQQKPGKAPKLLIYAASTLQSGVPSRFSGSGSGTDFTLTISSLQPEDFATYYCQHYVSSPRVYTFGQGTKVEIKR", "IC50 / nM": 4.55}

INPUT: So what does the record say about IC50 for TY25040 (antibody, V domains shown) VH: QVQLVQSGAEVKKPGSSVKVSCKASGFTFSDYGIHWVRQAPGQGLEWIGRIYPSGGSTNYAQKFQGRVTITADKSTSTAYMELSSLRSEDTAVYYCARQRGYGRFAYWGQGTLVTVSS VL: DIQLTQSPSSLSASVGDRVTITCSASSSVGYVYWYQQKPGKAPKLLIYDASSLESGVPSRFSGSGSGTDFTLTISSLQPEDFATYFCQQYTYAPFTFGQGTKVEIKR ?
OUTPUT: 3.3
